// reported Maltose/glucose ratio for each item listed
- System: modified PQQGDH
- test.summary: Substrate specificity using glucose assay system (ferricyanide reduction, absorbance 420 nm)
- Assay type: biochemical
- experimental.setup: potassium phosphate buffer pH 7.0; reagent 0.5%; substrate 19.2 mM; control 0.93
- Experimental: D-glucose+ferricyanide ion+PQQGDH D-glucono-1,5-lactone+ferrocyanide ion Specificity to each substrate can be determined by changing D-glucose to other saccharides. The presence of the ferrocyanide ion produced by reduction of the ferricyanide ion was confirmed by measuring the decrease of absorbance at a wavelength of 420 nm by spectrophotometry. A. […] Variation in absorbance per unit time was determined by calculating ΔOD/min(ΔOD test−ΔOD blank) […]
Hey, just send me the number, nothing else.

Answered cases to consult:
N.N.O=C(O)CC(O)(CC(=O)O)C(=O)O [Diammonium hydrogen citrate] :: 0.88
O=C(O)CCC(=O)O :: 0.84
Cl.NCCCC[C@H](N)C(=O)O [L-lysine hydrochloride] :: 0.91
O=C(O)CCCCCC(=O)O :: 0.86
CC(C)(CC(=O)O)CC(=O)O :: 0.82

Proceeding to the next compound to report its Maltose/glucose ratio.
Output Maltose/glucose ratio of Cl.N [Ammonium chloride] 0.91

---

- Test system: modified PQQGDH
- test.summary: Substrate specificity using glucose assay system (ferricyanide reduction, absorbance 420 nm)
- Format: biochemical
- experimental.setup: phthalic acid buffer pH 7.0; reagent 1%; substrate 4.8 mM; control 0.72
parameter.measured: Maltose/glucose ratio
Just the number, please, no unit after it.

O=C(O)CC(=O)O :: 0.77
Cl.N [Ammonium chloride] :: 0.57
NCCS(=O)(=O)O :: 0.66

Recall the reported Maltose/glucose ratio of N.N.O=C(O)CC(O)(CC(=O)O)C(=O)O [Diammonium hydrogen citrate] on modified PQQGDH and write it down. 0.80

Tell me Maltose/glucose ratio of Cl.NCCCC[C@H](N)C(=O)O [L-lysine hydrochloride] when tested on modified PQQGDH. 0.61

Write down measured Maltose/glucose ratio (modified PQQGDH) for this compound. [Cl-].[K+] [Potassium chloride] 0.67

---

- Tested on: modified PQQGDH
- test.summary: Substrate specificity using glucose assay system (ferricyanide reduction, absorbance 420 nm)
- Type: biochemical
- experimental.setup: phthalic acid buffer pH 7.0; reagent 0.5%; substrate 4.8 mM; control 0.72
- Description: D-glucose+ferricyanide ion+PQQGDH D-glucono-1,5-lactone+ferrocyanide ion Specificity to each substrate can be determined by changing D-glucose to other saccharides. The presence of the ferrocyanide ion produced by reduction of the ferricyanide ion was confirmed by measuring the decrease of absorbance at a wavelength of 420 nm by spectrophotometry. A. […] Variation in absorbance per unit time was determined by calculating ΔOD/min(ΔOD test−ΔOD blank) […]
Form field: Maltose/glucose ratio (one value per entry).
Give the figure by itself; no unit, no explanation.

Cl.NCCCC[C@H](N)C(=O)O [L-lysine hydrochloride] :: 0.62
[Cl-].[K+] [Potassium chloride] :: 0.66
NCCS(=O)(=O)O :: 0.71

Output Maltose/glucose ratio of Cl.N [Ammonium chloride] 0.60

Kindly indicate its recorded Maltose/glucose ratio. Item: O=C(O)CC(=O)O 0.74

Read the entry N.N.O=C(O)CC(O)(CC(=O)O)C(=O)O [Diammonium hydrogen citrate] and write its reported Maltose/glucose ratio. 0.79

---

- System: modified PQQGDH
- test.summary: Substrate specificity using glucose assay system (ferricyanide reduction, absorbance 420 nm)
- Assay type: biochemical
- experimental.setup: phthalic acid buffer pH 7.0; reagent 0.5%; substrate 19.2 mM; control 0.75
Friendly reminder: Maltose/glucose ratio below 0.6 is 1, at or above is 0.

Example results:
NCCS(=O)(=O)O :: 0
O=C(O)CC(=O)O :: 1
Cl.N [Ammonium chloride] :: 0
N.N.O=C(O)CC(O)(CC(=O)O)C(=O)O [Diammonium hydrogen citrate] :: 1
Cl.NCCCC[C@H](N)C(=O)O [L-lysine hydrochloride] :: 0

# input for lookup
Lab note: Maltose/glucose ratio threshold 0.6. Does this compound come in strictly under it? [Cl-].[K+] [Potassium chloride] 0
